Recorded values, source PubChem BioAssay (NCATS).

Target: Glutaminase kidney isoform, mitochondrial (Homo sapiens)
Test: qHTS for Inhibitors of Glutaminase (GLS): LOPAC Validation (AID 624146); note: nearly all actives have a fitted effect of over 60% in size
Conditions: glutaminase enzyme activity inhibition; series mostly up to 46.1 µM
Source text: Glutaminase (GLS) catalyzes the hydrolysis of glutamine into glutamate and ammonia. It plays a critical role in glutaminolysis, which is an important energy source for proliferating cells. […] The overall goal of this project is to identify small molecule inhibitors of GLS through quantitative high throughput screening (qHTS) of the MLSMR. […]
Inconclusive results are not listed. Calls of active or inactive are those of the source. Calls come from the whole dose curve; as a rule, active = well fitted inhibition curve with a large enough effect; inconclusive = small, poorly fitted or top-dose-only effect; inactive = no such curve, though single readings can be large or run the other way.
Thanks in advance; please answer with one of these: yes for active, no for inactive

Illustrative cases are given below, each with its answer.
### Prompt Which outcome was assigned to O=C(c1cc(O)c(O)c([N+](=O)[O-])c1)c1ccccc1F in this test?
### Response yes

### Prompt Here is the next compound: COc1cc(SC)ccc1C(=O)N1CCC(Cc2ccccc2)CC1
### Response no

### Prompt How about this compound: COc1cc2nc(N3CCN(C(=O)OCc4ccccc4)C(C(=O)NC(C)(C)C)C3)nc(N)c2cc1OC (stereo unspecified)
### Response no

### Prompt Further, for O=c1[nH]c2cc(C(F)(F)F)ccc2n1-c1cc(C(F)(F)F)ccc1O ?
### Response no

### Prompt Consider next the compound O=C(/C=C/c1ccc(O)cc1)c1ccc(O)cc1O in the same way.
### Response yes

### Prompt Try this compound too: Fc1cccc(/C=N/N=C/c2cccc(F)c2)c1
### Response no

More entries:
### Prompt What is the recorded call for this compound in the test? Clc1ccc(N2CCN(Cc3c[nH]c4ncccc34)CC2)cc1
### Response no

### Prompt Now consider CCCCC#Cc1nc(NC)c2ncn([C@@H]3O[C@H](CO)[C@@H](O)[C@H]3O)c2n1 .
### Response no

### Prompt Then CCc1c(C(=O)NCCc2ccc(N3CCCCC3)cc2)[nH]c2ccc(Cl)cc12 ?
### Response no

### Prompt Cool, now O=C(O)CC1CC(c2ccccc2)=NO1 (stereo unspecified)
### Response no

### Prompt Same for CN1CCc2ccccc2Cc2[nH]c3ccccc3c2CC1
### Response yes
